Consider the following molecules; for each one, report its % responders of in-vitro T cell proliferation test, Allergic.
# Tested on: T cell lines obtained from HDM allergic individuals and non-allergics
# ASSAY: In vitro T cell proliferation test in T cell lines (Example 3)
# Format: cell-based, human
# PROTOCOL CONDITIONS: T cell lines from HDM allergic individuals (n=30); 0.5 or 2 ug/ml; 72 h
Numbers only, in %.

// below: answered molecules
1. Derp1: major house dust mite allergen, group 1, Dermatophagoides pteronyssinus; control (protein, UniProt P08176 99-320, looked up) Peptidase 1: TNACSINGNAPAEIDLRQMRTVTPIRMQGGCGSCWAFSGVAATESAYLAYRNQSLDLAEQELVDCASQHGCHGDTIPRGIEYIQHNGVVQESYYRYVAREQSCRRPNAQRFGISNYCQIYPPNVNKIREALAQTHSAIAVIIGIKDLDAFRHYDGRTIIQRDNGYQPNYHAVNIVGYSNAQGVDYWIVRNSWDTNWGDNGYGYFAANIDLMMIEEYPYVVIL ... 73
2. Derf1: major house dust mite allergen, group 1, Dermatophagoides farinae; control (protein, UniProt P16311 99-321, looked up) Peptidase 1: TSACRINSVNVPSELDLRSLRTVTPIRMQGGCGSCWAFSGVAATESAYLAYRNTSLDLSEQELVDCASQHGCHGDTIPRGIEYIQQNGVVEERSYPYVAREQRCRRPNSQHYGISNYCQIYPPDVKQIREALTQTHTAIAVIIGIKDLRAFQHYDGRTIIQHDNGYQPNYHAVNIVGYGSTQGDDYWIVRNSWDTTWGDSGYGYFQAGNNLMMIEQYPYVVIM ... 70

# next molecule below
The molecule listed as A022: house dust mite protein; SEQ ID NO: 19 (Der f), 20 (Der p), 317 (Blo t) (protein) NWQMVWQDEFNGGHLDQNHWEFETGGGGWGNNELEFYTANRSQNVRVENGHLVIDVRVESYGGRDFTSGRIHSKQAWAYGKFEARARLPSGHHLWPAIWMFPRDSKYGPWAASGEIDIMEYRGDVHDKIEGTIHYGGQWPNNIYTGSGPHHFNVDFSKDFHNFAVEWDTKEIRWYMDGNKYFSVNIDRNMWSGKGNNPYNKNGQPFDQPFRWILNVAVGGNFFGPGPYVTPDQARHWQKHTMEIDYVRVYQWR shows % responders of in-vitro T cell proliferation test, Allergic equal to 29
